Form field: pD2′ (one value per entry).
System: isolated guinea pig trachea
PROTOCOL DESCRIPTION: Peripheral antihistaminic properties: inhibition of histamine-induced contraction of isolated guinea pig trachea
CONDITION PARAMETERS: non-competitive inhibition; mean ± standard deviation; histamine-contracted guinea pig trachea
REPORTED PROPERTY: pD2′

> print(dat)
                                   molecule  reported.property  recorded.number
1  O=C(O)COCCN1CCN(C(c2ccccc2)c2ccc(Cl)cc2)CC1 (single isomer, unassigned) [P]               pD2′              6.3
2  OCCOCCOCCN1CCN(C(c2ccccc2)c2ccc(Cl)cc2)CC1 (single isomer, unassigned) [J]               pD2′              6.0
3  OCCOCCN1CCN(C(c2ccccc2)c2ccc(Cl)cc2)CC1 (single isomer, unassigned) [H]               pD2′              6.7
4  NC(=O)COCCN1CCN(C(c2ccccc2)c2ccc(Cl)cc2)CC1 (single isomer, unassigned; (-)) [K]               pD2′              6.3

====

MEASURED ON: rat cortex histamine H1 receptor (Rattus norvegicus)
Construct: the samples containing 0.5 mg of cortex membrane protein; from tissue; host or cells: cerebral cortex membranes of male Sprague-Dawley rats
Sequence (P31390 whole entry): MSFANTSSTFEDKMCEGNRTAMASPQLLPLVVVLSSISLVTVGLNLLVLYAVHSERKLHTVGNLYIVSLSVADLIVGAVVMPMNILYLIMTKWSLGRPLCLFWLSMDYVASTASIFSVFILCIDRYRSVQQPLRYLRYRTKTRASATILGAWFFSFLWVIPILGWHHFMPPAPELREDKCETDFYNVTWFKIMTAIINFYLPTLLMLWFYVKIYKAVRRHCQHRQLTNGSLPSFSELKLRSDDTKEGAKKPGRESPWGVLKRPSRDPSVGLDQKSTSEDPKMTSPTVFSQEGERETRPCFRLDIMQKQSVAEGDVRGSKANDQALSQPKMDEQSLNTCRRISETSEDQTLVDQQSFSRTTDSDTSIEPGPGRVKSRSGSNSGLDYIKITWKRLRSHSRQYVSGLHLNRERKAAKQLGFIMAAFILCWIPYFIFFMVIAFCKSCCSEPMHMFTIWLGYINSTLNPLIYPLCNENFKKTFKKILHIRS
PROTOCOL DESCRIPTION: Affinity towards the histamine H1 receptor ([3H]mepyramine competitive binding)
CONDITION PARAMETERS: cologarithm of Ki, mean ± deviation (n=2); [3H]mepyramine 4.5×10^−9 mole/l, rat cortex membranes
Quick rule for you: Ki under 80 nM gets y, anything else gets n.

> print(dat)
                                   compound  category
1  CC(C)(C)c1ccc(CN2CCN(C(c3ccccc3)c3ccc(Cl)cc3)CC2)cc1 (single isomer, unassigned) [F]         n
2  Cc1cccc(CN2CCN(C(c3ccccc3)c3ccc(Cl)cc3)CC2)c1 (single isomer, unassigned) [D]         y
3  OCCOCCN1CCN(C(c2ccccc2)c2ccc(Cl)cc2)CC1 (single isomer, unassigned) [G]         y
4  CC(C)(C)c1ccc(CN2CCN(C(c3ccccc3)c3ccc(Cl)cc3)CC2)cc1 (single isomer, unassigned) [E]         n
5  OCCOCCOCCN1CCN(C(c2ccccc2)c2ccc(Cl)cc2)CC1 (single isomer, unassigned) [J]         y
6  NC(=O)COCCN1CCN(C(c2ccccc2)c2ccc(Cl)cc2)CC1 (single isomer, unassigned; (-)) [K]         y

====

pKi: −log10 of the molar value.
pKi, rat cortex histamine H1 receptor (Rattus norvegicus): measured values
REPORTED PROPERTY: pKi

> print(dat)
                                   compound  reported.property  recorded.number
1  OCCOCCOCCN1CCN(C(c2ccccc2)c2ccc(Cl)cc2)CC1 (single isomer, unassigned) [I]                pKi             7.10
2  NC(=O)COCCN1CCN(C(c2ccccc2)c2ccc(Cl)cc2)CC1 (single isomer, unassigned; (+)) [Compound L]                pKi             6.80
3  Cc1cccc(CN2CCN(C(c3ccccc3)c3ccc(Cl)cc3)CC2)c1 (single isomer, unassigned) [C]                pKi             6.20
4  OCCOCCN1CCN(C(c2ccccc2)c2ccc(Cl)cc2)CC1 (single isomer, unassigned) [H]                pKi             8.70

====

Form field: pA2 (one value per entry).
Tested on: isolated guinea pig trachea
PROTOCOL DESCRIPTION: Peripheral antihistaminic properties: inhibition of histamine-induced contraction of isolated guinea pig trachea
CONDITION PARAMETERS: competitive inhibition; mean ± standard deviation; histamine-contracted guinea pig trachea
REPORTED PROPERTY: pA2

> print(dat)
                                   compound  recorded.number
1  OCCOCCOCCN1CCN(C(c2ccccc2)c2ccc(Cl)cc2)CC1 (single isomer, unassigned)              6.5
2  NC(=O)COCCN1CCN(C(c2ccccc2)c2ccc(Cl)cc2)CC1 (single isomer, unassigned; (+))              6.4
3  O=C(O)COCCN1CCN(C(c2ccccc2)c2ccc(Cl)cc2)CC1 (single isomer, unassigned)              6.6
4  OCCOCCN1CCN(C(c2ccccc2)c2ccc(Cl)cc2)CC1 (single isomer, unassigned)              6.5
5  Clc1ccc(C(c2ccccc2)N2CCNCC2)cc1 (single isomer, unassigned; (+)) [B]              5.0
6  Clc1ccc(C(c2ccccc2)N2CCNCC2)cc1 (single isomer, unassigned; (-)) [A]              5.7

====

Form field: Lethal dose (one value per entry).
System: mice
PROTOCOL DESCRIPTION: Toxicity: lethal dose in mice after intraperitoneal injection
Assay type: in vivo
CONDITION PARAMETERS: dose causing death in 2 out of 3 mice
REPORTED PROPERTY: Lethal dose (mol/kg)

> print(dat)
                                   compound  unit.abbreviation  recorded.number
1  NC(=O)COCCN1CCN(C(c2ccccc2)c2ccc(Cl)cc2)CC1 (single isomer, unassigned; (+)) [Compound L]             mol/kg            0.001
2  OCCOCCOCCN1CCN(C(c2ccccc2)c2ccc(Cl)cc2)CC1 (single isomer, unassigned) [J]             mol/kg           0.0001
3  CC(C)(C)c1ccc(CN2CCN(C(c3ccccc3)c3ccc(Cl)cc3)CC2)cc1 (single isomer, unassigned) [E]             mol/kg            0.001

====

Tested on: mice
PROTOCOL DESCRIPTION: Toxicity: lethal dose in mice after intraperitoneal injection
Format: in vivo
CONDITION PARAMETERS: dose causing death in 2 out of 3 mice
REPORTED PROPERTY: Lethal dose (mol/kg)

> print(dat)
                                   molecule  measured.on  unit.abbreviation  bound.operator  recorded.number
1  NC(=O)COCCN1CCN(C(c2ccccc2)c2ccc(Cl)cc2)CC1 (single isomer, unassigned; (-)) [K]         mice             mol/kg               =           0.0003
2  OCCOCCN1CCN(C(c2ccccc2)c2ccc(Cl)cc2)CC1 (single isomer, unassigned) [G]         mice             mol/kg               =           0.0006
3  CC(C)(C)c1ccc(CN2CCN(C(c3ccccc3)c3ccc(Cl)cc3)CC2)cc1 (single isomer, unassigned) [F]         mice             mol/kg               >            0.001
4  OCCOCCOCCN1CCN(C(c2ccccc2)c2ccc(Cl)cc2)CC1 (single isomer, unassigned) [I]         mice             mol/kg               =           0.0001
5  Cc1cccc(CN2CCN(C(c3ccccc3)c3ccc(Cl)cc3)CC2)c1 (single isomer, unassigned) [D]         mice             mol/kg               >            0.001
6  OCCOCCN1CCN(C(c2ccccc2)c2ccc(Cl)cc2)CC1 (single isomer, unassigned) [H]         mice             mol/kg               =           0.0006
7  Cc1cccc(CN2CCN(C(c3ccccc3)c3ccc(Cl)cc3)CC2)c1 (single isomer, unassigned) [C]         mice             mol/kg               >            0.001
